MEASURED TARGET: soluble TSHR protein (ELISA coat) (human, UniProt P16473 22-260, limits assumed)
ASSAY PROTOCOL: ELISA, plate coated with soluble TSHR, antibody at 300 nM, anti-human IgG Fc-HRP;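 further: TSHR coated at 2 µg/ml, bound antibody revealed by goat anti-human IgG Fc HRP, color developed with TMB and stopped with H2SO4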
QUANTITY NAME: ELISA (OD 450) at 300 nM
Enter your answer as a number in OD 450; do not include the unit.

Lookup result for TSHB-17 (antibody, V domains shown) VH: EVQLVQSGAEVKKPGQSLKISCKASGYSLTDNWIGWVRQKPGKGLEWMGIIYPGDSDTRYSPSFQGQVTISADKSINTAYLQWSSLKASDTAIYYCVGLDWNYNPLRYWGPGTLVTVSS VL: QSVLTQPPSVSAAPGQKVTISCSGSSSDIGSLYVSWYQQLPGTAPKLLIYDNNKRPSGIPDRFSGSKSGTSATLGITGLQTGDEADYYCGTWDSRLGIAVFGGGTQLTVL ; measured ELISA (OD 450) at 300 nM: 0.475

Lookup result for TSHB-3 (antibody, V domains shown) VH: EVQLVQSGAEVKKPGESLKISCKASGYSLTDNWIGWVRQKPGKGLEWMGIIYPGDSDTRYSPSFQGQVTISADKSISTAYLQWSSLKASDTAIYYCVGLEWNYNPLRYWGQGTLVTVSS VL: QSVLTQPPSVSAAPGQKVTISCSGSSSDIGSNYVSWYQQFPGTAPKLLIYDNNKRPSAIPDRFSGSKSGTSATLGITGLQTGDEADYYCGTWDSRLGIAVFGGGTQLTVL ; measured ELISA (OD 450) at 300 nM: 0.467

Lookup result for TSHB-20 (antibody, V domains shown) VH: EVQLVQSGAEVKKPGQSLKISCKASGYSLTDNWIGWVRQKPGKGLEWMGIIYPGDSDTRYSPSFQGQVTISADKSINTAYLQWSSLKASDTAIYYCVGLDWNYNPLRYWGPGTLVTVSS VL: QSVLTQPPSVSAAPGQKVTISCSGSSSNIGSNYVSWYQQLPGTAPKLLIYDNNKRPSGIPDRFSGSKSGTSATLGITGLQTGDEADYYCGTWDSRLGIAVFGGGTQLTVL ; measured ELISA (OD 450) at 300 nM: 0.54

Lookup result for TSHB-13 (antibody, V domains shown) VH: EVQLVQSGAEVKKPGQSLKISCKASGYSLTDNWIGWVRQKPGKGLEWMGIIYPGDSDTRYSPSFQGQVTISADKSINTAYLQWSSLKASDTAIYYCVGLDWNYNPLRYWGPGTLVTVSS VL: QSVLTQPPSVSAAPGQKVTISCSGSSSDIGSNYVSWYQQLPGTAPKLLIYDNNKRPSGIPDRFSGSKSGTSATLGITGLQTGDEADYYCGTWDSRLGIAVFGGGTQLTVL ; measured ELISA (OD 450) at 300 nM: 0.561

Lookup result for TSHB-12 (antibody, V domains shown) VH: EVQLVQSGAEVKKPGASVKVSCKASGYSLTDNWIGWVRQAPGQGLEWMGIIYPGDSDTRYAQKFQGRVTMTADKSTSTVYMELSSLRSEDTAVYYCVGLDWNYNPLRYWGQGTLVTVSS VL: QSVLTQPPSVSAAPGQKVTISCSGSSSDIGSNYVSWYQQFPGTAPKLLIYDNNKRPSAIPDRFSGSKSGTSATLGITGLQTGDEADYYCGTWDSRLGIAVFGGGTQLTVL ; measured ELISA (OD 450) at 300 nM: 0.52

Data provenance is patent US20250388688A1.
